# Tested on: 171881-019-R-J1-PDC tumor spheroids, viability
# TEST_METHOD_NOTES: Anticancer human tumor 171881-019-R-J1-PDC patient-derived invasive breast carcinoma cell line growth inhibition [GQUAD]
# EXPERIMENTAL_SETUP: second compound 10 µM; first compound 10 µM; active compounds read low; spheroids with HUVEC and MSC
// values below are reported viability, T/C
REPORTED_ENDPOINT: viability, T/C (%)

>>> meas_value("O=c1[nH]cc(F)c(=O)[nH]1 + Cc1[nH]c2ccc(F)cc2c1-c1nc2c3cccnc3c3ncccc3c2[nH]1")
38.8
>>> meas_value("CC1COCCN1c1cc(C2(S(C)(=N)=O)CC2)nc(-c2ccnc3[nH]ccc23)n1 (stereo not drawn) + Cc1[nH]c2ccc(F)cc2c1-c1nc2c3cccnc3c3ncccc3c2[nH]1")
8.3
>>> meas_value("C=CCn1c(=O)c2cnc(Nc3ccc(N4CCN(C)CC4)cc3)nc2n1-c1cccc(C(C)(C)O)n1 + CN(C)c1ccc(Nc2c3ccc(NC(=O)CCN4CCCC4)cc3nc3cc(NC(=O)CCN4CCCC4)ccc23)cc1")
0.14

---

// values below are reported viability, T/C
# Tested on: 171881-019-R-J1-PDC tumor spheroids, viability
# TEST_METHOD_NOTES: Anticancer human tumor 171881-019-R-J1-PDC cell line growth inhibition [GQUAD];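 further: spheroids exposed to compounds for 7 days; 100% = DMSO vehicle control viability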
# EXPERIMENTAL_SETUP: second compound 0.0316 µM; first compound 0.316 µM; active compounds read low; spheroids with HUVEC and MSC
REPORTED_ENDPOINT: viability, T/C (%)

>>> meas_value("COc1cccc2c1C(=O)c1c(O)c3c(c(O)c1C2=O)CC(O)(C(=O)CO)CC3OC1CC(N)C(O)C(C)O1 (stereo unspecified) + CN(C)c1ccc(Nc2c3ccc(NC(=O)CCN4CCCC4)cc3nc3cc(NC(=O)CCN4CCCC4)ccc23)cc1")
51.4
>>> meas_value("CC1COCCN1c1cc(-c2ccnn2C)c2ccnc(-c3ccn[nH]3)c2n1 (stereo unspecified) + CN(C)c1ccc(Nc2c3ccc(NC(=O)CCN4CCCC4)cc3nc3cc(NC(=O)CCN4CCCC4)ccc23)cc1")
12.4
>>> meas_value("COc1cc(C2c3cc4c(cc3C(OC3OC5COC(C)OC5C(O)C3O)C3COC(=O)C23)OCO4)cc(OC)c1O (stereo unspecified) + Cc1cnc(CNC(=O)c2c(=O)c3ccc(N4CCCN(C)CC4)nc3n3c2sc2ccccc23)cn1")
63.4
>>> meas_value("Cc1[nH]c2ccccc2c1CCNCc1ccc(/C=C/C(=O)NO)cc1 + Cc1[nH]c2ccc(F)cc2c1-c1nc2c3cccnc3c3ncccc3c2[nH]1")
0.66
>>> meas_value("Cc1[nH]c2ccccc2c1CCNCc1ccc(/C=C/C(=O)NO)cc1 + Cc1cnc(CNC(=O)c2c(=O)c3ccc(N4CCCN(C)CC4)nc3n3c2sc2ccccc23)cn1")
0.61
>>> meas_value("CC1COCCN1c1cc(C2(S(C)(=N)=O)CC2)nc(-c2ccnc3[nH]ccc23)n1 (stereo unspecified) + CN(C)c1ccc(Nc2c3ccc(NC(=O)CCN4CCCC4)cc3nc3cc(NC(=O)CCN4CCCC4)ccc23)cc1")
99.8
>>> meas_value("Cn1ncnc1[C@H]1c2n[nH]c(=O)c3cc(F)cc(c23)N[C@@H]1c1ccc(F)cc1 + Cc1[nH]c2ccc(F)cc2c1-c1nc2c3cccnc3c3ncccc3c2[nH]1")
84.5
>>> meas_value("Cc1cccc(N(C)C(=O)C2C(O)CCN2c2nc(C)cc(C(F)(F)F)c2C#N)c1 (stereo unspecified) + CN(C)c1ccc(Nc2c3ccc(NC(=O)CCN4CCCC4)cc3nc3cc(NC(=O)CCN4CCCC4)ccc23)cc1")
103
>>> meas_value("CC1COCCN1c1cc(C2(O)CC3CCC(C2)O3)c2cnn(-c3ccn[nH]3)c2n1 (stereo unspecified) + Cc1[nH]c2ccc(F)cc2c1-c1nc2c3cccnc3c3ncccc3c2[nH]1")
10.3
>>> meas_value("CCc1c2c(nc3ccc(O)cc13)-c1cc3c(c(=O)n1C2)COC(=O)[C@]3(O)CC + CN(C)c1ccc(Nc2c3ccc(NC(=O)CCN4CCCC4)cc3nc3cc(NC(=O)CCN4CCCC4)ccc23)cc1")
24.8
>>> meas_value("CC(=O)O[C@H]1C(=O)[C@@]2(C)[C@H]([C@H](OC(=O)c3ccccc3)[C@]3(O)C[C@H](OC(=O)[C@H](O)[C@@H](NC(=O)c4ccccc4)c4ccccc4)C(C)=C1C3(C)C)[C@]1(OC(C)=O)CO[C@@H]1C[C@@H]2O + CN(C)c1ccc(Nc2c3ccc(NC(=O)CCN4CCCC4)cc3nc3cc(NC(=O)CCN4CCCC4)ccc23)cc1")
29.1
>>> meas_value("COc1ccc([C@@H](O)c2cc(-c3ncnc4cc(N5CCOCC5)ccc34)c(F)cc2Cl)nn1 + Cc1[nH]c2ccc(F)cc2c1-c1nc2c3cccnc3c3ncccc3c2[nH]1")
74.5
>>> meas_value("CCc1c2c(nc3ccc(O)cc13)-c1cc3c(c(=O)n1C2)COC(=O)[C@]3(O)CC + Cc1cnc(CNC(=O)c2c(=O)c3ccc(N4CCCN(C)CC4)nc3n3c2sc2ccccc23)cn1")
19.9
>>> meas_value("O=C(c1cc(Cc2n[nH]c(=O)c3ccccc23)ccc1F)N1CCN(C(=O)C2CC2)CC1 + Cc1[nH]c2ccc(F)cc2c1-c1nc2c3cccnc3c3ncccc3c2[nH]1")
102
>>> meas_value("COc1cc(C2c3cc4c(cc3C(OC3OC5COC(C)OC5C(O)C3O)C3COC(=O)C23)OCO4)cc(OC)c1O (stereo unspecified) + CN(C)c1ccc(Nc2c3ccc(NC(=O)CCN4CCCC4)cc3nc3cc(NC(=O)CCN4CCCC4)ccc23)cc1")
94.9
>>> meas_value("Nc1ccn(C2OC(CO)C(O)C2(F)F)c(=O)n1 (stereo unspecified) + CN(C)c1ccc(Nc2c3ccc(NC(=O)CCN4CCCC4)cc3nc3cc(NC(=O)CCN4CCCC4)ccc23)cc1")
44.6
>>> meas_value("CC1COCCN1c1cc(C2(S(C)(=N)=O)CC2)nc(-c2ccnc3[nH]ccc23)n1 (stereo unspecified) + Cc1[nH]c2ccc(F)cc2c1-c1nc2c3cccnc3c3ncccc3c2[nH]1")
87.4
>>> meas_value("CC(C)(O)C1CCC(Nc2ccc3ncc(-c4cccc(C(F)(F)F)c4)n3n2)CC1 (stereo unspecified) + Cc1[nH]c2ccc(F)cc2c1-c1nc2c3cccnc3c3ncccc3c2[nH]1")
88.4
>>> meas_value("COc1cccc2c1C(=O)c1c(O)c3c(c(O)c1C2=O)CC(O)(C(=O)CO)CC3OC1CC(N)C(O)C(C)O1 (stereo unspecified) + Cc1[nH]c2ccc(F)cc2c1-c1nc2c3cccnc3c3ncccc3c2[nH]1")
38.1
>>> meas_value("CC(C)n1c(=O)n(C)c2cnc3cc(F)c(-c4ccc(OCCCN5CCCCC5)nc4)cc3c21 + CN(C)c1ccc(Nc2c3ccc(NC(=O)CCN4CCCC4)cc3nc3cc(NC(=O)CCN4CCCC4)ccc23)cc1")
88.1
>>> meas_value("Nc1ccn(C2OC(CO)C(O)C2(F)F)c(=O)n1 (stereo unspecified) + Cc1[nH]c2ccc(F)cc2c1-c1nc2c3cccnc3c3ncccc3c2[nH]1")
39.9

---

# System: 171881-019-R-J1-PDC tumor spheroids, viability
# TEST_METHOD_NOTES: Anticancer human tumor 171881-019-R-J1-PDC cell line growth inhibition [GQUAD];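 further: spheroids exposed to compounds for 7 days; 100% = DMSO vehicle control viability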
# EXPERIMENTAL_SETUP: second compound 1 µM; first compound 3.16 µM; active compounds read low; spheroids with HUVEC and MSC
REPORTED_ENDPOINT: viability, T/C

>>> meas_value("C=CCn1c(=O)c2cnc(Nc3ccc(N4CCN(C)CC4)cc3)nc2n1-c1cccc(C(C)(C)O)n1 + Cc1[nH]c2ccc(F)cc2c1-c1nc2c3cccnc3c3ncccc3c2[nH]1")
"23.4%"
>>> meas_value("CC(C)(O)C1CCC(Nc2ccc3ncc(-c4cccc(C(F)(F)F)c4)n3n2)CC1 (stereo not given) + Cc1cnc(CNC(=O)c2c(=O)c3ccc(N4CCCN(C)CC4)nc3n3c2sc2ccccc23)cn1")
"13.6%"
>>> meas_value("CC(C)(O)C1CCC(Nc2ccc3ncc(-c4cccc(C(F)(F)F)c4)n3n2)CC1 (stereo not given) + Cc1[nH]c2ccc(F)cc2c1-c1nc2c3cccnc3c3ncccc3c2[nH]1")
"16.4%"
>>> meas_value("CC1COCCN1c1cc(-c2ccnn2C)c2ccnc(-c3ccn[nH]3)c2n1 (stereo not given) + Cc1cnc(CNC(=O)c2c(=O)c3ccc(N4CCCN(C)CC4)nc3n3c2sc2ccccc23)cn1")
"6.82%"
>>> meas_value("C=CCn1c(=O)c2cnc(Nc3ccc(N4CCN(C)CC4)cc3)nc2n1-c1cccc(C(C)(C)O)n1 + CN(C)c1ccc(Nc2c3ccc(NC(=O)CCN4CCCC4)cc3nc3cc(NC(=O)CCN4CCCC4)ccc23)cc1")
"1.52%"

Reference source: PubChem BioAssay AID2060498
